Source listed as patent US6737383B1.

- System: wild oat
- TEST METHOD NOTES: Test B pre/postemergence wild oat
- Format: in vivo, Avena fatua
- MEASUREMENT CONDITIONS: Preemergence, Rate 62 g/ha; scale 0 to 10 (0 no effect, 10 complete control)
Plant response rating, Wild oats values for the molecules below.

Solved cases (3 shown):
STRUCTURE: CC(C)N(C(=O)n1oc(=O)n(C)c1=O)c1ccc(F)cc1F
TARGET SYSTEM: wild oat
MEASURED RESULT: 4
//
STRUCTURE: CC(C)N(C(=O)n1oc(=O)n(CC2(C)COC2)c1=O)c1ccccc1
TARGET SYSTEM: wild oat
MEASURED RESULT: 0
//
STRUCTURE: CC(C)N(C(=O)n1oc(=O)n(C2CCC2)c1=O)c1ccc(F)cc1F
TARGET SYSTEM: wild oat
MEASURED RESULT: 0

Requested read-out: Plant response rating, Wild oats. Entry: CC(C)Cn1c(=O)on(C(=O)N(c2ccccc2)C(C)C)c1=O
3

----------
- Tested on: surinam grass
- TEST METHOD NOTES: Test B pre/postemergence surinam grass
- Format: in vivo, Brachiaria decumbens
- MEASUREMENT CONDITIONS: Preemergence, Rate 250 g/ha; scale 0 to 10, 0 is no effect, 10 is complete control
READOUT LABEL: B. signalgrass plant response rating
Just the number, please.

Solved cases (6 shown):
STRUCTURE: CCN(Cc1ccccc1)C(=O)n1oc(=O)n(C(C)C)c1=O
TARGET SYSTEM: surinam grass
B. signalgrass plant response rating: 0
//
STRUCTURE: CC(C)N(C(=O)n1oc(=O)n(CO)c1=O)c1ccc(Cl)cc1
TARGET SYSTEM: surinam grass
B. signalgrass plant response rating: 0
//
STRUCTURE: Cc1nc(C)c(Cn2c(=O)on(C(=O)N(c3ccc(F)cc3F)C(C)C)c2=O)s1
TARGET SYSTEM: surinam grass
B. signalgrass plant response rating: 4
//
STRUCTURE: Cc1ccccc1-n1c(=O)on(C(=O)N(c2ccc(F)cc2Cl)C(C)C)c1=O
TARGET SYSTEM: surinam grass
B. signalgrass plant response rating: 0
//
STRUCTURE: CC[Si](C)(C)Cn1c(=O)on(C(=O)N(c2ccc(Cl)cc2)C(C)C)c1=O
TARGET SYSTEM: surinam grass
B. signalgrass plant response rating: 0
//
STRUCTURE: Cc1ccccc1-n1c(=O)on(C(=O)N(c2ccc(C(C)C)cc2)C(C)C)c1=O
TARGET SYSTEM: surinam grass
B. signalgrass plant response rating: 0

Now let's try a different one.
Requested read-out: B. signalgrass plant response rating. Entry: COCn1c(=O)on(C(=O)N(c2ccc(F)cc2F)C(C)C)c1=O
8

----------
Plant response rating, Wheat values for the molecules below.
- Test system: wheat
- TEST METHOD NOTES: Test B pre/postemergence wheat
- Type: in vivo, Triticum aestivum
- MEASUREMENT CONDITIONS: Rate 1000 g/ha, Preemergence; scale 0 to 10 (0 no effect, 10 complete control)
- Protocol: […] At the same time, these crop and weed species were also treated with postemergence applications of test chemicals formulated in the same manner. […] Treated plants and controls were maintained in a greenhouse for twelve to sixteen days, after which all species were compared to controls and visually evaluated. […]
Just the number, please.

Solved cases (4 shown):
MOLECULE: C=CCn1c(=O)on(C(=O)N(c2ccc(F)cc2F)C2CC2)c1=O
TARGET SYSTEM: wheat
Plant response rating, Wheat: 2
--
MOLECULE: COP(=O)(CCn1c(=O)on(C(=O)N(c2ccc(F)cc2)C(C)C)c1=O)OC
TARGET SYSTEM: wheat
Plant response rating, Wheat: 5
--
MOLECULE: CCN(CC)C(=O)n1oc(=O)n(-c2ccc(F)cc2)c1=O
TARGET SYSTEM: wheat
Plant response rating, Wheat: 0
--
MOLECULE: COC(=O)C(CCO)n1c(=O)on(C(=O)N(c2ccc(Cl)cc2)C(C)C)c1=O (centres unmarked)
TARGET SYSTEM: wheat
Plant response rating, Wheat: 0

Now let's try a different one.
Requested read-out: Plant response rating, Wheat. Entry: COc1ccc(-n2c(=O)on(C(=O)N(c3ccc(F)cc3)C(C)C)c2=O)cc1
0
